TARGET_ENTITY: recombinant eIF4E (Homo sapiens (Human))
EXPERIMENT_NOTES: Fluorescence polarization competition assay for eIF4E binding potency
RUN_PARAMETERS: inhibition of eIF4E/EDA-m7GDP-ATTO-550 binding by 50%; Table 4B calculated values; read-out: IC50
ENDPOINT_LABEL: IC50 (nM)

Would you please look over these solved cases?
• N#Cc1cc2c(=O)n(CCOc3ccc(Cl)cc3-c3cc(CCO)cc(C(=O)O)c3)cnc2cn1 = 1380
• Cc1ccc(-c2cc(Cl)ccc2OCCn2c(C)nc3cc(C(F)(F)F)c(CN4CCN(C)CC4)c(C#N)c3c2=O)c2scc(C(=O)O)c12 = 28.5
• Cc1cc(-c2c(C(F)(F)F)cc3nc(C)n(CCOc4ccc(Cl)cc4-c4cc(C)nc5c(C(=O)O)csc45)c(=O)c3c2C#N)cc(C)n1 = 15.1
• Cc1nc2cnc(N(C)C3CCN(CC(C)(F)F)CC3)c(C#N)c2c(=O)n1CC#Cc1ccc(Cl)cc1-c1ccnc2c(C(=O)O)csc12 = 18.9
• Cc1nc2cc(C(F)(F)F)c(CN(C)C)c(C#N)c2c(=O)n1CCOc1ccc(Cl)cc1-c1ccnc2c(C(=O)O)csc12 = 42

(P) COC(=O)c1csc2c(-c3cc(Cl)ccc3C#CCn3c(C)nc4cnc(N(C)C5CCN(CC(F)F)CC5)c(C#N)c4c3=O)ccnc12
(Q) Cc1cnc(C)c(-c2nc3c(=O)n(CCOc4ccc(Cl)cc4-c4cc(C)nc5c(C(=O)O)csc45)c(C)nc3cc2C(F)(F)F)n1
(R) Cc1cc(-c2cc(Cl)ccc2OCCn2c(C)nc3cnc(-c4cc(Cl)ccc4C)c(C#N)c3c2=O)c2scc(C(=O)O)c2n1
(S) Cc1cc(-c2cc(Cl)ccc2OCCn2c(C)nc3cc(C(F)(F)F)cnc3c2=O)c2scc(C(=O)O)c2n1
Arrange the 4 compounds from largest to smallest IC50. Answer format: the labels, in the requested order. P, Q, S, R

---

TARGET_ENTITY: recombinant eIF4E (Homo sapiens (Human), UniProt P06730)
Sequence (P06730 whole entry): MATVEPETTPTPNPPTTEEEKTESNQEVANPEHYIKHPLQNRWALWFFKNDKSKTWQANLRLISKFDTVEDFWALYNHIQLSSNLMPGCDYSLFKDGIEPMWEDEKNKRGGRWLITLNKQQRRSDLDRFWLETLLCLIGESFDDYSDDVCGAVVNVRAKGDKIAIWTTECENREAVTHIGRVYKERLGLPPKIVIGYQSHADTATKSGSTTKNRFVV
EXPERIMENT_NOTES: Fluorescence polarization competition assay for eIF4E binding potency
RUN_PARAMETERS: inhibition of eIF4E/EDA-m7GDP-ATTO-550 binding by 50%; Table 4B calculated values; read-out: IC50
ENDPOINT_LABEL: IC50 (µM)

Please review the entries below; each comes with its answer.
- COC(C)c1ncc2nc(C)n(CCOc3ccc(Cl)cc3-c3cc(C)nc4c(C(=O)O)csc34)c(=O)c2c1C#N (stereo not drawn) [compound 988]: 0.0219
- Cc1cc(-c2cc(Cl)ccc2OCCn2c(C)nc3cc(C(F)(F)F)c(CCN(C)C)c(C#N)c3c2=O)c2scc(C(=O)O)c2n1 [compound 610]: 0.0139
- Cn1ccc2c(=O)n(CCOc3ccc(Cl)cc3-c3cccc(C(=O)O)c3)cnc21 [compound 68]: 64.3
- Cc1nc2c(F)cc(C(F)F)c(C#N)c2c(=O)n1CC#Cc1ccc(Cl)cc1-c1ccnc2c(C(=O)O)csc12 [compound 557]: 0.0064
- Cc1cc(-c2cc(Cl)ccc2OCCn2c(C)nc3cc(CN(C)C)c(C(F)(F)F)c(C#N)c3c2=O)c2scc(C(=O)O)c2n1 [compound 635]: 0.0106
- Cc1nc2cc(C(F)(F)F)cc(C#N)c2c(=O)n1CCOc1ccc(Cl)cc1-c1ccc(F)c2c(C(=O)O)csc12 [compound 122]: 0.0244

(A) Cc1nc2cnc(N(C)C3CCN(CC4(F)COC4)CC3)c(C#N)c2c(=O)n1CC#Cc1ccc(Cl)cc1-c1ccnc2c(C(=O)O)csc12 [compound 1185]
(B) Cc1c(C(F)(F)F)c2cc(C(F)(F)F)cc(C#N)c2c(=O)n1CCOc1ccc(Cl)cc1-c1ccnc2c(C(=O)O)csc12 [compound 268]
(C) O=C(O)c1cccc(-c2cc(Cl)ccc2OCCn2cnc3cc(F)c(F)cc3c2=O)c1 [compound 77]
Order the records by IC50, with each subsequent value no larger than the one before. Put the labels in the requested order and list them out. C, B, A

(1) O=C(O)c1cccc(-c2cc(Cl)ccc2OCCc2cccc3nc[nH]c(=O)c23)c1 [compound 170]
(2) Cc1cc(-c2cc(Cl)ccc2OCCn2c(C)nc3c(C(C)C)ncc(C#N)c3c2=O)c2scc(C(=O)O)c2n1 [compound 491]
Which gives the smaller IC50 number: 1 or 2 ? Could you answer with the label of the item you picked? 2
(2: 0.0229 µM, 1: 0.845 µM)

(I) Cc1nc2cnc(N(C)C3CCN(C4(C(F)F)COC4)CC3)c(C#N)c2c(=O)n1CC#Cc1ccc(Cl)cc1-c1ccnc2c(C(=O)O)csc12 [compound 1182]
(II) Cc1nc2cncc(C#N)c2c(=O)n1CCOc1ccc(Cl)cc1-c1cccc(P(=O)(O)O)c1 [150FA]
Could you kindly indicate whether I or II has the higher IC50 value? Label of pick, please. II

(1) Cc1cc(-c2cc(Cl)ccc2OCCn2c(C)nc3c(C)nc(N4CCNCC4)c(C#N)c3c2=O)c2scc(C(=O)O)c2n1 [compound 878]
(2) Cc1nc2cc(C#N)c(C(F)F)c(C#N)c2c(=O)n1CCOc1ccc(Cl)cc1-c1cccc(C(=O)O)c1 [compound 63]
(3) Cc1nc2cc(OC(F)(F)F)c(C#N)c(C#N)c2c(=O)n1CCOc1ccc(Cl)cc1-c1ccnc2c(C(=O)O)csc12 [compound 543]
(4) Cc1cc(-c2cc(Cl)ccc2OCCn2c(C)nc3cncc(C#N)c3c2=O)c2scc(C(=O)NS(C)(=O)=O)c2n1 [compound 600]
Ranking field: IC50; order: falling. Could you list the labels in the order requested? 3, 2, 4, 1

(1) Cc1nc2c(N3CCN(CC(F)F)C4CC43)ncc(C#N)c2c(=O)n1CCOc1ccc(Cl)cc1-c1ccnc2c(C(=O)O)csc12 (stereo not drawn) [compound 818]
(2) Cc1nc2cc(C(F)(F)F)c(-c3ccncc3)c(C#N)c2c(=O)n1CCOc1ccc(Cl)cc1-c1cccc(C(=O)O)c1 [compound 386]
Problem: Given the entries 1 and 2 , determine which has the lower reported IC50. Your answer should be the label of the entry you select. 1

(1) Cc1cc(-c2cc(Cl)ccc2OCCn2c(C)nc3c(C)nc(-c4ccc(C(F)(F)F)cc4)c(C#N)c3c2=O)c2scc(C(=O)O)c2n1 [compound 926]
(2) Cc1cc(-c2cc(Cl)ccc2OCCn2c(C)nc3cnc(-c4ccc(C(F)(F)F)cc4)c(C#N)c3c2=O)c2scc(C(=O)O)c2n1 [compound 952]
(3) Cc1nc2cc(S(C)(=O)=O)c(F)c(C#N)c2c(=O)n1CCOc1ccc(Cl)cc1-c1ccnc2c(C(=O)O)csc12 [compound 278]
(4) CSc1ncc(-c2cc(Cl)ccc2OCCn2cnc3cnc(C#N)cc3c2=O)nc1C(=O)O [compound 98]
Rank ascending by IC50. # list labels per requested ordering 3, 1, 2, 4

(1) Cc1nc2cnc(N(C)C3CCN(C4CC(F)(F)C4)CC3)c(C#N)c2c(=O)n1CC#Cc1ccc(Cl)cc1-c1ccnc2c(C(=O)NS(=O)(=O)c3ccccn3)csc12 [compound 1109]
(2) Cc1cc(-c2cc(Cl)ccc2OCCn2c(C)nc3cc(Cl)c(C4CC4)c(C#N)c3c2=O)c2scc(C(=O)O)c2n1 [compound 1050]
1 or 2 : whose IC50 is greater? # reply format: chosen label 2
